Assay Protocol: activity coefficient (dimensionless); of the first substance listed, at infinite dilution; xn = mol fraction of the nth substance listed
Settings: 363.15 K; 100 kPa; Liquid; Chromatography; x1 = 0
// values below are reported activity coefficient

Which measured activity coefficient value corresponds to c1ccccc1 [benzene] + CCCC[N+]1(C)CCCC1.N#CN=C=[N-] ?
1.6

Next: C1CCOC1 [tetrahydrofuran] + CCCC[N+]1(C)CCCC1.N#CN=C=[N-]
1.56

Consider next the molecule COC(C)(C)C [2-methoxy-2-methylpropane] + CCCC[N+]1(C)CCCC1.N#CN=C=[N-] in the same way.
6.92

Let us now turn to C#CCCCC [1-hexyne] + CCCC[N+]1(C)CCCC1.N#CN=C=[N-]
4.61

Please give the result for C=Cc1ccccc1 [styrene] + CCCC[N+]1(C)CCCC1.N#CN=C=[N-] too.
1.8

Same question, C=CCCCCCC [oct-1-ene] + CCCC[N+]1(C)CCCC1.N#CN=C=[N-] this time
40.3

Try the molecule C#CCCCCCC [1-octyne] + CCCC[N+]1(C)CCCC1.N#CN=C=[N-]
9.79

Would you kindly repeat that for CC(C)=O [acetone] + CCCC[N+]1(C)CCCC1.N#CN=C=[N-] ?
1.04
